Origin of measurements: the supplement of paper PMC12042874

# Test: amyloid nucleation score (Sup35N fusion, yeast selection) (log enrichment); library NNK1; higher = more nucleation; inactive = no reads after selection;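 also: zero at mode of non-aggregating sequences after 7 days selection at 30°C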
Metric name: amyloid nucleation score
Write the value as a bare number.

EFWWIDICSGCYLFF :: 6.5

Would you kindly look at the next entry?
Short answer for "WGVFDTETIVWFVYIGTL" : amyloid nucleation score was -0.026

* * *

# Test: amyloid nucleation score (Sup35N fusion, yeast selection) (log enrichment); library NNK1; higher = more nucleation; inactive = no reads after selection
Metric name: amyloid nucleation score
Write the number on its own, no unit after it.

Answered examples (3):
WLDHEISSELAGYPLWLSAN :: 2.19
IKLNTEALESYLLVFRMKRW :: -0.605
SQEHCMVNTK :: 0.112

The measured amyloid nucleation score associated with "TTGSLVCKAAPIWFVPTPAF" reads -1.09

Per the records, this sequence ( "LNICGIWGGVVSEGARNVFY" ) has amyloid nucleation score equal to 0.063

* * *

# Test: amyloid nucleation score (Sup35N fusion, yeast selection) (log enrichment); library NNK1; higher = more nucleation; inactive = no reads after selection
Metric name: amyloid nucleation score

ISRSNTLYAIFCARPAKVSL :: -0.235
LFASESRWSRRYMFPWCRLC :: -0.445
VTMSDLATHNYREMNSLFSF :: 0.091
SMWKWDQKGKDNGTKNNKRL :: -0.939

Lookup result for "RVRSSMCGALWARKFYRTHI" ; measured amyloid nucleation score: -0.116

Value of measured amyloid nucleation score for the entry "PKMAPRNINVGRS" : 0.26

Lab note: measured amyloid nucleation score of "SWSLALL" was -0.278

Summary for this substance, "HVCSFLQAGAHWRRVAVCAG" : amyloid nucleation score is 0.124

amyloid nucleation score recorded for this substance, "ADTLFPLDHPVINFSPFIVL" , is 5.79

// recorded amyloid nucleation score for "GLTRFGGPSTMIFMDL" : -0.201

The reported value for "NLKSSYSAIPLFFIWCGTSV" in terms of amyloid nucleation score is 0.114

amyloid nucleation score recorded for this substance, "TGVTHC" , is inactive

amyloid nucleation score reading for "FTYIISRISFMRDWVF" : -0.257

substance "DPGVNALVLLILKTWDRDYE" , amyloid nucleation score observed: -0.638

The recorded amyloid nucleation score for entry "FIAQLYVNEMFDSLTLRRGD" equals 0.415

Field amyloid nucleation score (entry "NEFVDQFSEHFGRVGEFPAW" ) reads -0.316

Notebook: "TLMRCVFLLYYPCGYIKSDL" , amyloid nucleation score read as 0.551

Recorded result, "GLHKYPCYPTNSRYVVVINM" , amyloid nucleation score: 3.27

Field amyloid nucleation score (entry "IFAPAIMSFYSLVIQWPYPG" ) reads 1.99

// sample "LNLVRLYVTSKCSLDATSVI" , its amyloid nucleation score was -0.444

Looking up "LILRVSFN" , I found its amyloid nucleation score recorded as 2.28

In plain terms, "CPRPYDRSALSRKLY" has a documented amyloid nucleation score of 0.713

Lab book: amyloid nucleation score of "RITAVRGVCLFSADSV" noted as -0.175

Just so you know, measured amyloid nucleation score for "DMCLWARG" came out at 0.732

// amyloid nucleation score lookup, substance = "MCDVERCRS" , result: inactive
